- assay-system: T1, mouse CTGF (Abbexa) (mouse, UniProt P29268 26-348, limits assumed)
- T1 construct: also called Murine CTGF; mCTGF
- T1 sequence (looked up): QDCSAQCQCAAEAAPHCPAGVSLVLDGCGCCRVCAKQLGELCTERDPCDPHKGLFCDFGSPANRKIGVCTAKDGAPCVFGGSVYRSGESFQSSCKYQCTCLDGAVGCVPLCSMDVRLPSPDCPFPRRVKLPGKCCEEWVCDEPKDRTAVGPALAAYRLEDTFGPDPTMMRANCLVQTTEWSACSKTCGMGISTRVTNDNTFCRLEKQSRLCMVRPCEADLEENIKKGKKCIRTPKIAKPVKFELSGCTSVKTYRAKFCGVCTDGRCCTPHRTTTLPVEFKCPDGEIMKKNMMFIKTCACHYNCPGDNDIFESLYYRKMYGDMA
- test-details: SPR (Biacore)
metric-name: log10 of koff (log10 of the value in s⁻¹)
Scale: log10; quantity: koff; unit before log: s⁻¹

[
  {
    "binder": "lipocalin mutein of SEQ ID NO: 19 (designed binder, also called hNGAL mutein; not shown: C-terminal His-tag) QDSTSDLIPAPPLSKVPLQQNFQDNQFQGKWYVVGLAGNAILREDKQPAKMFATIYELKEDKSYDVTSVRFEAKSCSYTIKTFVPGSQPGEFTAGNIKSAPGQTSTLVRVVSTNYNQHAMVFHKAVSQNRESFVITLYGRTKELTSELKENFIRFSKSLGLPENHIVFPVPIDQCIDG",
    "log10 of koff": -4.60
  }
]

Query string: Assign log10 of koff to the following record: lipocalin mutein of SEQ ID NO: 36 (designed binder, also called hNGAL mutein) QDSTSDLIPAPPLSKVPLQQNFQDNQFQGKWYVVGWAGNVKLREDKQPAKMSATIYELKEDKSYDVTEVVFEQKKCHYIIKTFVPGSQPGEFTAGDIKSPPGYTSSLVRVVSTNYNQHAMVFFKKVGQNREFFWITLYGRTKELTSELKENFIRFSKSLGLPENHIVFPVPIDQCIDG
Result string: -3.28

Query string: Assign log10 of koff to the following record: lipocalin mutein of SEQ ID NO: 14 (designed binder, also called hNGAL mutein; not shown: C-terminal His-tag) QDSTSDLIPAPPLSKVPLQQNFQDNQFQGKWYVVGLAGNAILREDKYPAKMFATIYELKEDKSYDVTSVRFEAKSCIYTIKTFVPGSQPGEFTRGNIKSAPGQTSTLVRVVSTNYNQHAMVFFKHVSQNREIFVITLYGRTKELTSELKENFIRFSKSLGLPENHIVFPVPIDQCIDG
Result string: -4.15
